System: K-562 leukemia
Test: NCI-60 one-dose screen, 48 h (100 = growth as untreated, 0 = no growth, -100 = all killed)
Settings: 10 µM unless noted
This is part of a sample that, as a whole, favours compounds with a hit. Of some 83,000 tested, about 20% had one in any assay. Active and inactive are the calls of the source. How the source made its calls: active means growth percent below 10; inactive means the rest.
growth: recorded values

# count of solved cases: 4
1) CNC(=O)c1cc(Oc2cccc3nc(NC(=O)Nc4cc(C(F)(F)F)ccc4Cl)ccc23)ccn1
80.9% (inactive)
2) O=C(CCSc1nnc2n(Cc3ccccc3)c(=O)c3c4c(sc3n12)CCCC4)N1CCN(c2ccccc2)CC1
113% (inactive)
3) Cc1ccc(-c2nc(-c3cn(C)c4ncccc34)cs2)cc1
10.3% [100 µM] (inactive)
4) O=c1nc(-c2ccccc2)c2cc(-c3ccc(C(F)(F)F)nc3)ccc2[nH]1
103% (inactive)

Could you please provide reported growth for CCN(CC)c1ccc(CNc2cc(C)nc3ccccc23)cc1 ? Thanks!
31% (inactive)

Could you please provide reported growth for COc1ccc(NC(=O)Nc2ccc(OCCCCCC(=O)NO)cc2)cc1 ? Thanks!
88.3% (inactive)

----------
growth: recorded values
System: LOX IMVI melanoma
Test: NCI-60 one-dose screen, 48 h (100 = growth as untreated, 0 = no growth, -100 = all killed)
Details: 10 µM unless noted
The panel holds about 83,000 compounds, 20% with a hit somewhere; the sample as a whole holds those more often.
Return type: number; implicit unit %.

# count of solved cases: 3
1. N#C/C(=C\C=C\c1ccc(-c2cc(Cl)ccc2Cl)o1)c1nc2ccccc2s1
90.9
2. C=C(C)[C@@H]1CC[C@]2(C(=O)N3CCN(C)CC3)CC[C@]3(C)[C@H](CC[C@@H]4[C@@]5(C)CC[C@H](OC(=O)c6ccccc6C(=O)O)C(C)(C)[C@@H]5CC[C@]43C)[C@@H]12
99.1
3. Fc1cccc(-c2ccc3c(c2)C2(CCNCC2)CN3)c1
92.2

Now examine the next entry.
Could you please provide reported growth for Cc1c2cccnc2c(C)c2c1c1cc(CO)ccc1n2C ? Thanks!
8.95

----------
Tested on: SF-268 CNS
Assay: NCI-60 one-dose screen, 48 h
Settings: 10 µM unless noted
This is part of a sample that, as a whole, favours compounds with a hit. Of some 83,000 tested, about 20% had one in any assay. Calls of active or inactive are those of the source. The calls were made as follows: active = growth percent below 10; inactive = the rest.
Give one outcome, nothing more. List: 1 for active, 0 for inactive

Some solved entries appear below for comparison.
1) CC(=O)/C(=C/c1ccc([N+](=O)[O-])cc1)C(=O)c1ccccc1
0
2) CC[N+]1(CC)CC[N+]2(CCCC(C)CC2)CC1 (stereo not drawn)
0
3) Cc1ccc(N2C(=O)CCC2=O)cc1
0
4) N=c1c(S(=O)(=O)c2ccccc2)cc2c(=O)n3ccccc3nc2n1CC1CCCO1 (stereo not drawn)
0
5) C=CC(=O)Nc1ccc(Nc2nccc(-c3ccc(N4CCCC4)c(C#N)c3)n2)cc1
0
6) CCOC(=O)c1nn(CC(O)c2ccccc2)c(NC(=O)Nc2cccc(F)c2)c1C (stereo not drawn)
0
7) CC(C)=CCNc1ncnc2c1ncn2C1OC(CO)C(O)C1O (stereo not drawn)
1

Identify the outcome logged in this assay for the molecule shown: C=C(C)[C@@H]1CCC[C@]2(C(=O)N3CCN(C)CC3)CC[C@]3(C)[C@@H](CC[C@@H]4[C@@]5(C)CC/C(=N\NC(=O)c6ccncc6)C(C)(C)[C@@H]5CC[C@]43C)[C@@H]12
0

Taken from PubChem BioAssay (NCI).
